Cited source: patent US20250382363A1

- assayed_target: pre-existing anti-drug antibodies (ADA) present in human sera
- assay_summary: pre-existing ADA ELISA, scFv coated, human sera unspiked vs spiked
observed_property: Mean No of serum samples >30% inhibition (30% CCP) with SCP (serum samples)

{"binder": "PRO2230 (scFv 37-20-B03-sc09.1) (scFv, also called PRO2230 wt; a-PD-L1 wt) scFv: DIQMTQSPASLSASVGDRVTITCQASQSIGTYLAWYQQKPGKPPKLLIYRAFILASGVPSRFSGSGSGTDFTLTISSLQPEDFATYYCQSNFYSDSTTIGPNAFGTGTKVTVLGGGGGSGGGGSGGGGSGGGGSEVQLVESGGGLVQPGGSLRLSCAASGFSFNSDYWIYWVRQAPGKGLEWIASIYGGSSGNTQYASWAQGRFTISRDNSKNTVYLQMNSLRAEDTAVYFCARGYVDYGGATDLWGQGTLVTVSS", "reading": 9}
{"binder": "PRO2942 (scFv 54-21-H03-sc01_(T146R)) (scFv, PRO1922 variant; VH substitution, AHo numbering; also called PRO1922 T146R) scFv: DIQMTQSPSSLSASVGDRVTITCQASESIYSSLAWYQQKPGKAPKLLIYLASTLASGVPSRFSGSGSGTDFTLTISSLQPEDFATYYCQSTDYTTSTHRNSFGTGTKVTVLGGGGGSGGGGSGGGGSGGGGSEVQLVESGGGLVQPGGSLRLSCAASGFSFSTTYYMCWVRQAPGKGLEWIGCTNTASSVRTYYATWAKGRFTISRDNSKNTVYLQMNSLRAEDTAVYYCARDMGFADYALNLWGQGTLVRVSS", "reading": 1}
